# METHOD: Amount of fragrance ingredients retained on paper blotter after evaporation (ethanol extraction, GC-MS)
# Type: physicochemical
# TEST_PARAMETERS: Table 5; fragrance TAK in C3; 120 min; 32°C
QUANTITY_NAME: amount of fragrance ingredient retained on blotter (percentage of the initial amount) (%)
Give bare numbers, in %.

# return recorded amount of fragrance ingredient retained on blotter (percentage of the initial amount) for entry O=C1CCCCCCCCCCCC(=O)OCCO1 [Ethylene Brassylate]
93

# return recorded amount of fragrance ingredient retained on blotter (percentage of the initial amount) for entry CC(C=O)Cc1ccc(C(C)(C)C)cc1 (stereo not shown)
90

New cases:
# return recorded amount of fragrance ingredient retained on blotter (percentage of the initial amount) for entry CCCCCCOC(C)=O [Hexyl acetate, Hexyl Acetate]
2

====

# METHOD: Amount of fragrance ingredients retained on paper blotter after evaporation (ethanol extraction, GC-MS)
# Format: physicochemical
# TEST_PARAMETERS: Table 6; fragrance TAK in C4; 15 min; 32°C
QUANTITY_NAME: amount of fragrance ingredient retained on blotter (percentage of the initial amount) (%)
Give bare numbers, in %.

# return recorded amount of fragrance ingredient retained on blotter (percentage of the initial amount) for entry CC(C=O)Cc1ccc(C(C)(C)C)cc1 (stereo not shown)
99

// for each molecule in input: emit amount of fragrance ingredient retained on blotter (percentage of the initial amount)
1. C=CC(C)(CCC=C(C)C)OC(C)=O (stereo not shown) [Linalyl acetate]
2. CCCCCCOC(C)=O [Hexyl acetate, Hexyl Acetate]
3. CC/C=C\CCOC(=O)c1ccccc1O [Cis 3-hexenyl salicylate, Cis-3-hexenyl salicylate]

82
41
92
